Provide the reported Post-emerge Herbicidal Activity, phytotoxicity rating SETVI of each item.
System: green foxtail (Setaria viridis, SETVI)
Assay: Post-emerge test, greenhouse herbicide activity screening
Assay type: in vivo
Details: Rate 63 g ai/ha; rating scale 0-100 (0 no damage, 100 complete death); 14 days after application
Please respond with just the number, no unit label.

Quick one: give measured Post-emerge Herbicidal Activity, phytotoxicity rating SETVI for COc1c(Cl)cc(F)c(-n2c(=O)cc(C(F)(F)F)n(C)c2=O)c1CC(C)(Cl)C(=O)OCCSC (stereo not shown)
50

Quick one: give measured Post-emerge Herbicidal Activity, phytotoxicity rating SETVI for C=COC(=O)C(C)(Cl)Cc1c(OC)c(Cl)cc(F)c1-n1c(=O)cc(C(F)(F)F)n(C)c1=O (stereo not shown)
100

Quick one: give measured Post-emerge Herbicidal Activity, phytotoxicity rating SETVI for COC(=O)C(Cl)Cc1c(OC)c(Cl)cc(F)c1-n1c(=O)cc(C(F)(F)F)n(C)c1=O (stereo not shown)
30

Quick one: give measured Post-emerge Herbicidal Activity, phytotoxicity rating SETVI for CCOC(=O)C(Cl)(CC(=O)OC)Cc1c(OC)c(Cl)cc(F)c1-n1c(=O)cc(C(F)(F)F)n(C)c1=O (stereo not shown)
0
